- tested system: T1, ESO157 wild type peptide (…)/HLA-A*02:01 complex on cells (human)
- T1 construct: also called ESO157-loaded T2 cells
- protocol summary: FACS, peptide-pulsed T2 cells
experimental endpoint: MFI
Answer with a bare number; do not write a unit.

Item under review: phage clone #52, anti-ESO157/HLA-A*02:01 scFv displayed on phage (scFv, V domains shown) VH: QVQLVQSGAEVKKPGASVKVSCKASGYTFTSYGISWVRQAPGQGLEWMGWISAYNGNTNYAQKLQGRVTMTTDTSTSTAYMELRSLRSDDTAVYYCARYSGYYAGDSWGQGTLVTVSS VL: QSVLTQPPSVSGAPGQRVTISCTGSSSNIGAGYDVHWYQQLPGTAPKLLIYGDTNRPSGVPDRISGSKSGTSASLAITGLQAEDEADYYCQSYDSNLYTYVFGTGTKVTVLG . Reported MFI? 14500

Data origin, for the record: patent US20190382504A1
